Attribution: patent US20250333405A1

# assayed-system: human GPR39 receptor (Homo sapiens)
# Construct: PC3 Cells, Expressing the Endogenous Human GPR39 Receptor; endogenous in cells
# experiment-description: Intracellular calcium response (FLIPR, Calcium-6) in PC3 cells, antagonism of agonist C3 (TC-G 1008) at EC90
# stated-conditions: functional pKi (-Log10Ki) by modified Cheng-Prusoff from IC50; PC3 cells endogenously expressing human GPR39; 30 μM ZnCl2; agonist C3 (TC-G 1008) at EC90 1.5 μM; read-out: fpKi activity
pKi: −log10 of the molar value.
The compounds listed here are annotated with their pKi.

1) CN1CCN(C(=O)c2cc3[nH]c(C4CC4)nc3cc2N2CCCC2)C(c2ccccc2)C1 (centres unmarked) :: < 5.20
2) CN1CCN(C(=O)c2ccc(NC(=O)C3CC3)cc2C2CCCC2)C(c2ccccc2)C1 (centres unmarked) :: 6.00 to 6.50
3) CN1CCN(C(=O)c2ccc(-c3cn[nH]c3)cc2N2CCCC2)C(c2ccccc2)C1 (centres unmarked) :: < 5.20
4) C[C@@H]1CN(C(=O)c2ccc(NC(=O)C3CC3)cc2N2CCCC2)C[C@@H](C)O1 (racemic) :: 5.20 to 5.90
5) O=C(Nc1ccc(C(=O)N2CCS(=O)(=O)CC2)c(N2CCCC2=O)c1)C1CC1 :: < 5.20
6) Cc1nnc(-c2ccc(C(=O)N3CCC(C(F)(F)F)CC3)c(-c3nc(C(F)(F)F)cs3)c2)[nH]1 :: ≥ 7.30
7) O=C(Nc1ccc(C(=O)N2CC3CC(C2)O3)c(N2CCCC2)c1)C1CC1 :: 5.20 to 5.90

Input: Determine its reported pKi: `Cc1nnc(-c2ccc(C(=O)N3CCC(C(F)(F)F)CC3)c(-c3ccn(CC(C)C)n3)c2)[nH]1`
Output: ≥ 7.30

====

Listed compounds paired with reported pKi
# assayed-system: human GPR39 receptor (Homo sapiens, UniProt O43194)
# Construct: PC3 Cells, Expressing the Endogenous Human GPR39 Receptor; endogenous in cells
# Sequence (O43194 whole entry): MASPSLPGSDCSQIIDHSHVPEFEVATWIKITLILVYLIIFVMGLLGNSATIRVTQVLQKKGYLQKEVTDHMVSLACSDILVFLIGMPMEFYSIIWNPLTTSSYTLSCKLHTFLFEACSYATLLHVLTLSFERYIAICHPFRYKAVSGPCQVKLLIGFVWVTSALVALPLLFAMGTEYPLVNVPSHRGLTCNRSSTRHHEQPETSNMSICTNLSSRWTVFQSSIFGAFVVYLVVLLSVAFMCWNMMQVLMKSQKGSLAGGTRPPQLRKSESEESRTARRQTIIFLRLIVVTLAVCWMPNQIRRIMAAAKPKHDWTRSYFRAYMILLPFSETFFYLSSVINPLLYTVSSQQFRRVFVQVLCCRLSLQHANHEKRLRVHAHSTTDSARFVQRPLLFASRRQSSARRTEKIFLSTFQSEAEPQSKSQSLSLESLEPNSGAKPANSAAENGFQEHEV
# experiment-description: Intracellular calcium response (FLIPR, Calcium-6) in PC3 cells, antagonism of agonist C3 (TC-G 1008) at EC90
# stated-conditions: functional pKi (-Log10Ki) by modified Cheng-Prusoff from IC50; PC3 cells endogenously expressing human GPR39; 30 μM ZnCl2; agonist C3 (TC-G 1008) at EC90 1.5 μM; read-out: fpKi activity
pKi: −log10 of the molar value. Counter-ions that a name gives are not always drawn.

Worked examples follow.
1. CN1CCN(C(=O)c2cc(F)c(NC(=O)C3CC3)nc2N2CCCC2)C(c2ccccc2)C1 (stereo not shown) :: 5.20 to 5.90
2. Cn1ccc(-c2cc(NC(=O)C3CC3)ccc2C(=O)N2CCC(F)(F)CC2)n1 :: 6.60 to 7.20
3. CN1CCN(C(=O)c2ccc(NC(=O)C3CC3)c(Cl)c2N2CCCC2)C(c2ccccc2)C1 (stereo not shown) :: 6.00 to 6.50
4. Cc1nnc(-c2ccc(C(=O)N3CCC(C(C)(C)C)CC3)c(-c3ccn(C(C)C)n3)c2)[nH]1 :: 6.60 to 7.20
5. Cc1cc(Cl)cc(C2CN(C)CCN2C(=O)c2ccc(NC(=O)C3CC3)cc2N2CCCC2)c1 (single isomer, unassigned) [Example 110a, hydrochloride] :: ≥ 7.30
6. CN1CCN(S(=O)(=O)c2ccc(NC(=O)C3CC3)cc2N2CCCC2)C(c2ccccc2)C1 (stereo not shown) :: 5.20 to 5.90

Input: Consider the compound `O=C(Nc1ccc(-c2nnc(N3CCCC3)o2)c(N2CCCC2)c1)C1CC1` tested on human GPR39 receptor (Homo sapiens, UniProt O43194); state its pKi.
Output: < 5.20

Input: Specify pKi for Cc1nc2cc(N3CCCC3)c(C(=O)N3CCN(C)CC3c3ccccc3)cc2[nH]1 (stereo not shown) , system human GPR39 receptor (Homo sapiens, UniProt O43194).
Output: < 5.20

Input: Would you please give the reported pKi of `Cc1nnc(-c2ccc(C(=O)N3CCC(F)(F)CC3)c(-c3cccc(C(C)C)n3)c2)[nH]1` with human GPR39 receptor (Homo sapiens, UniProt O43194)?
Output: ≥ 7.30

Input: Report value only: pKi, human GPR39 receptor (Homo sapiens, UniProt O43194), `Cc1nnc(-c2ccc(C(=O)N3CCC(C(F)(F)F)CC3)c(-c3cccc(C4CC4)n3)c2)[nH]1`
Output: ≥ 7.30

====

# assayed-system: human GPR39 receptor (Homo sapiens, UniProt O43194)
# Construct: PC3 Cells, Expressing the Endogenous Human GPR39 Receptor; endogenous in cells
# experiment-description: Intracellular calcium response (FLIPR, Calcium-6) in PC3 cells, antagonism of agonist C3 (TC-G 1008) at EC90
# stated-conditions: functional pKi (-Log10Ki) by modified Cheng-Prusoff from IC50; PC3 cells endogenously expressing human GPR39; 30 μM ZnCl2; agonist C3 (TC-G 1008) at EC90 1.5 μM; read-out: fpKi activity
readout: Ki

Some entries whose results are on file:
1) CC(C)(C)c1ccn(-c2cc(NC(=O)C3CC3)ccc2C(=O)N2CCS(=O)(=O)CC2)n1 :: ≤ 50.1 nM
2) CN1CCN(C(=O)c2ccc(NC(=O)C3CC3)cc2-c2ccc(C(F)(F)F)s2)C(c2ccccc2)C1 (racemic) :: > 6310 nM
3) Cc1nnc(-c2ccc(C(=O)N3CCC(F)(F)CC3)c(-c3cccc(C(C)(C)C)n3)c2)[nH]1 :: ≤ 50.1 nM

Input: Report Ki for `O=C(Nc1ccc(C(=O)N2CCS(=O)(=O)CC2)c(C2CCCC2)c1)C1CC1`
Output: > 6310 nM

Input: Identify measured Ki corresponding to `Cc1nnc(-c2ccc(C(=O)N3CCC(C(F)(F)F)CC3)c(-c3ccn(C4CCC4)n3)c2)[nH]1`
Output: ≤ 50.1 nM

Input: Find the measured Ki of Cc1ccc(-c2cc(NC(=O)C3CC3)ccc2C(=O)N2CCN(C)CC2c2ccccc2)s1 (racemic) and report it.
Output: 63.1 to 251 nM

Input: Return the recorded Ki value; entry: `Cc1nnc(-c2ccc(C(=O)N3CCC(C)CC3)c(-c3ccn(C(C)(C)C)n3)c2)[nH]1`
Output: ≤ 50.1 nM

Input: Item `Cc1nnc(-c2ccc(C(=O)N3CCC(F)(F)CC3)c(-c3cccc(C4CC4)n3)c2)[nH]1` : provide Ki
Output: ≤ 50.1 nM

Input: Supply Ki value. Item: `CC(C)n1ccc(-c2cc(-c3cc(C(F)(F)F)n[nH]3)ccc2C(=O)N2CCC(F)(F)CC2)n1`
Output: 316 to 1000 nM

Input: // fetch Ki given entry `O=C(c1ccc(-c2nnc[nH]2)cc1N1CCCC1)N1CCC(C(F)(F)F)CC1`
Output: 63.1 to 251 nM

Input: Assign Ki to the following record: Cc1ncc(-c2cc(NC(=O)C3CC3)ccc2C(=O)N2CCN(C)CC2c2ccccc2)s1 (racemic)
Output: 1260 to 6310 nM

Input: Query Ki for `CCCN1CCN(C(=O)c2ccc(NC(=O)C3CC3)cc2-c2ccn(C(C)C)n2)CC1`
Output: ≤ 50.1 nM

Input: Please indicate Ki recorded for `COC1(C)CCN(C(=O)c2ccc(-c3nnc(C)[nH]3)cc2-c2ccn(C(C)C)n2)CC1`
Output: ≤ 50.1 nM

Input: Quick one: give measured Ki for `Cc1nnc(-c2ccc(C(=O)N3CCC(C(F)(F)F)CC3)c(-c3ccn(C(C)C)n3)c2)[nH]1`
Output: ≤ 50.1 nM

Input: Look up and report measured Ki for this entry: `Cc1nnc(-c2ccc(C(=O)N3CCC(C(F)(F)F)CC3)c(-c3cccc(C(C)C)n3)c2)[nH]1`
Output: ≤ 50.1 nM

Input: Could you please provide reported Ki for CN1CCN(C(=O)c2ccc(Nc3nc4ccccn4n3)cc2N2CCCC2)C(c2ccccc2)C1 (stereo not drawn) ? Thanks!
Output: > 6310 nM

Input: Return Ki for the following compound: `Cc1nnc(-c2ccc(C(=O)N3CCC(F)(F)CC3)c(-c3ccn(C)n3)c2)[nH]1`
Output: 63.1 to 251 nM

====

Listing: pKi of selected compounds
# assayed-system: human GPR39 receptor (Homo sapiens, UniProt O43194)
# Construct: PC3 Cells, Expressing the Endogenous Human GPR39 Receptor; endogenous in cells
# experiment-description: Intracellular calcium response (FLIPR, Calcium-6) in PC3 cells, antagonism of agonist C3 (TC-G 1008) at EC90
# stated-conditions: functional pKi (-Log10Ki) by modified Cheng-Prusoff from IC50; PC3 cells endogenously expressing human GPR39; 30 μM ZnCl2; agonist C3 (TC-G 1008) at EC90 1.5 μM; read-out: fpKi activity
pKi: −log10 of the molar value.

Guide cases for pKi, answers given:
1. CCOC(=O)c1csc(-c2cc(C#N)ccc2C(=O)N2CCC(F)(F)CC2)n1 [Example 81] :: 6.60 to 7.20
2. Cc1nnc(-c2ccc(C(=O)N3CCC(C(F)(F)F)CC3)c(-c3nc(C4CC4)cs3)c2)[nH]1 [Example 69] :: ≥ 7.30
3. CN1CCN(S(=O)(=O)c2ccc(NC(=O)C3CC3)cc2N2CCCC2)CC1 [Example 103] :: 5.20 to 5.90
4. CN1CCN(C(=O)c2ccc(NC(=O)C3CC3)cc2C2=CCCC2)C(c2ccccc2)C1 (centres unmarked) [Example 89] :: 6.60 to 7.20
5. CN1CCN(C(=O)c2ccc(NC(=O)C3CC3)cc2N2CCCC2=O)C(c2ccccc2)C1 (centres unmarked) [Example 124] :: < 5.20

Input: For human GPR39 receptor (Homo sapiens, UniProt O43194), give pKi of the listed compound: O=C(Nc1ccc(C(=O)N2CCC3(CC2)COC3)c(-c2cccc(C(F)(F)F)n2)c1)C1CC1 [Example 38]
Output: ≥ 7.30

Input: Please look at Cc1nnc(-c2ccc(C(=O)N3CCC(C(F)(F)F)CC3)c(-c3ccn(C(C)(C)C)n3)c2)[nH]1 [Example 53] and tell me its recorded pKi on human GPR39 receptor (Homo sapiens, UniProt O43194).
Output: ≥ 7.30

Input: Fill: pKi (human GPR39 receptor (Homo sapiens, UniProt O43194)) for this compound O=C(Nc1cc(N2CCCC2)c(C(=O)N2CCS(=O)(=O)CC2)cc1Cl)C1CC1 [Example 96]
Output: 5.20 to 5.90
